Known RAMPO Score of a selection of binders
- TEST_TARGET: T1, P3028 (VFDEFKPLVEEPQNLIK, SEQ ID NO: 185), His-tagged (human)
- T1 construct: Synthetic fragment of human serum albumin (positions 397-413); used in solution as His-tagged peptide PGE73; also called PGE73; not shown: His-tag
- T1 peptide: VFDEFKPLVEEPQNLIK
- PROTOCOL_SUMMARY: PEPSCAN ELISA; peptide on chip, His-P3028 added;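 further: peroxidase color development with ABTS and H2O2 substrate, OD405 imaged by CCD camera with image processing and taken as raw values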
VALUE_KIND: RAMPO Score (rampo units)

BINDER: KSLDTFFVKLSLFTER (also called 30684) [KSLDTFFVKLSLFTER (SEQ ID NO: 510)]
VALUE_KIND: RAMPO Score
UNIT_ANNOTATION: rampo units
VALUE: 281
--
BINDER: KQLDTFFVKLSLFTER [KQLDTFFVKLSLFTER (SEQ ID NO: 440)]
VALUE_KIND: RAMPO Score
UNIT_ANNOTATION: rampo units
VALUE: 350
--
BINDER: KNLDTFFVKLSLFTER [KNLDTFFVKLSLFTER (SEQ ID NO: 402)]
VALUE_KIND: RAMPO Score
UNIT_ANNOTATION: rampo units
VALUE: 432
--
BINDER: KKPDTFFVKLSLFTER [KKPDTFFVKLSLFTER (SEQ ID NO: 436)]
VALUE_KIND: RAMPO Score
UNIT_ANNOTATION: rampo units
VALUE: 361
--
BINDER: KKLDPFFVKLSLFTER [KKLDPFFVKLSLFTER (SEQ ID NO: 307)]
VALUE_KIND: RAMPO Score
UNIT_ANNOTATION: rampo units
VALUE: 427
--
BINDER: KKLDTFFVKLHLFTER [KKLDTFFVKLHLFTER (SEQ ID NO: 345)]
VALUE_KIND: RAMPO Score
UNIT_ANNOTATION: rampo units
VALUE: 535
--
BINDER: KKLLTFFVKLSLFTER [KKLLTFFVKLSLFTER (SEQ ID NO: 491)]
VALUE_KIND: RAMPO Score
UNIT_ANNOTATION: rampo units
VALUE: 303
